# Lookup of reported NC50 (neutralisation of reporter SARS-CoV-2, Vero E6 cells) keyed by entry
Target: SARS-CoV-2 S protein on live SARS-CoV-2-mNG reporter virus (SARS-CoV-2, UniProt P0DTC2 14-1273)
Assay: cell-based or functional assay
In your response, the unit should come after the numeric value.

Task: Look up NC50 (neutralisation of reporter SARS-CoV-2, Vero E6 cells): CoV2-01 (antibody, V domains shown) VH: QVLLVQSGAEMKKPGASVKVSCKTSGYTFTNSYIHWVRQAPGQGLEWMGWINPISGGTNYAQKFQGRVTMTRDTSINTAYMELSRLRSDDTAVYYCARDRGDYDYGWGTSPFYFDYWGQGTLVTVSS VL: DVQMTQSPSSLSASVGDRVTITCRASQSISRYLNWYQQKPGKAPKLLIYAASSLQSGVPSRFSGSGSGADFTLTISSLQPEDFATYYCQQSFSPPITFGQGTRLEIK
Result: 5.2 µg/mL

Task: Look up NC50 (neutralisation of reporter SARS-CoV-2, Vero E6 cells): CoV2-18 (antibody, V domains shown) VH: QVQLVQSGAEVKKPGSSVKVSCKASGGTFSNYGISWVRQAPGQGLEWMGGIIPIFGTANYAQKFQGRVTITADKSTRTAYMELSSLRFEDTAVYYCARDRDDALTGLGLGGGFDIWGQGTMVTVSS VL: QAVVTQPPSASGTPGQRVTISCSGSTSNIGTNTANWYQHLPGTAPKLLIYGNDRRPSGVPDRFSGSKSVTSASLAISGLQSEDEADYYCAAWDERLNGYVFGTGTKLTVL
Result: 1.93 µg/mL

Task: Look up NC50 (neutralisation of reporter SARS-CoV-2, Vero E6 cells): CoV2-16 (antibody, V domains shown) VH: QVQLHQWGAGLLKPSETLSRTCAVYGGSFSGYYWTWIRQAPGKGLEWIGEINHGGSTRYNPSLESRVSISVDTSKKQFSLELRSVTAADTAIYYCARGYDTNWYGDGYNWFDPWDRGTLVTVSS VL: QAVVTQPPSVSGTPGQRVTISCSGSSSSIGSNTVHWYQHLPGTAPKLLMYNNNERPSGVPARFSGSKSGTSASLVITGLQADDEAEYYCQSYDTGLSGHVFGSGTELTVL
Result: 0.82 µg/mL

Task: Look up NC50 (neutralisation of reporter SARS-CoV-2, Vero E6 cells): CoV2-06 (antibody, V domains shown) VH: QVELQESGPGLVKPSGTLSLTCAVSGGSISSNNWWTWVRQPPGKGLEWIGEIHHSGGTNYNPSLKSRVTMSVDKSKNQFSLNLYSVTAADTAVYYCTRDRAGGTYSGFDFWGQGTLVTVSS VL: QAVVTQPASVSGSPGQSITISCTGTSSDVGGYNYVSWYQQHPGKAPKLMIYDVSNRPSGVSNRFSGSKSGNTASLTISGLQAEDEADYYCSSYTSSSTVVFGGGTKVTVL
Result: 0.15 µg/mL

Task: Look up NC50 (neutralisation of reporter SARS-CoV-2, Vero E6 cells): CoV2-14 (antibody, V domains shown) VH: EVQLQQSGPGLVKPSQTLSLTCAISGDSVSSNSAAWNWIRQSPSRGLEWLGRTYYRSKWYNDYAVSVKSRITINPDTSKNQFSLQLNSVTPEDTAVYYCAREEQQLVHDYYYYGMDVWGQGTMVTVSS VL: QAVVTQPASVSGSPGQSITISCTGTSSDIGAYNYISWYQQHPGKAPKLIIYEVSNRPSGISYRFSGSKSGNTASLTISGLQAEDEANYYCSSYAGSISFGGGTKVTVL
Result: 0.46 µg/mL
